# Target entity: GSK-3β (Homo sapiens, UniProt P49841)
# Sequence (P49841 whole entry, species assumed): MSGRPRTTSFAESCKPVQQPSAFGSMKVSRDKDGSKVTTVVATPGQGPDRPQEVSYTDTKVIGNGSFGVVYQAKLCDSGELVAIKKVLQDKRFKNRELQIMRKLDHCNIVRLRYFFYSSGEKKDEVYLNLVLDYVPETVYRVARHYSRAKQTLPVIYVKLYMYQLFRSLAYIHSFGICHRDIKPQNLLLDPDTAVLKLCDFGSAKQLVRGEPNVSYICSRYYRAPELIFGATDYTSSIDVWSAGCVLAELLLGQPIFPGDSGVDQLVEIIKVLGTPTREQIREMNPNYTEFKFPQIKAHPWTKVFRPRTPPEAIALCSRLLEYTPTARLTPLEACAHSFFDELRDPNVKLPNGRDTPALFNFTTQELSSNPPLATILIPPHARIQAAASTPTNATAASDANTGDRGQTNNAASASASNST
pIC50: −log10 of the molar value.

Mol: NC1=N/C(=C2/CCNC(=O)c3[nH]c4ccccc4c32)C(=O)N1
Target entity: GSK-3β (Homo sapiens, UniProt P49841)
Censoring operator: =
pIC50: 6.82
--
Mol: Cn1c2c(c3ccccc31)C(=C1N=C(N)NC1=O)CCNC2=O
Target entity: GSK-3β (Homo sapiens, UniProt P49841)
Censoring operator: <
pIC50: 5.00

----------
# Tested on: TNF-α production
# Assay method text: Inhibition of TNF-α production measured by competitive EIA in LPS stimulated THP-1 cells
# Format: cell-based, human
# Particulars: EIA, 3 hr incubation, means of two experiments, standard deviation in parentheses
pIC50: −log10 of the molar value.

Molecule: NC1=NC(=O)/C(=C2\CCNC(=O)c3[nH]c(Br)cc32)N1 [Hymenialdisine 1, hymenialdisine, reference compound]
Target entity: TNF-α production
pIC50: 5.87

Molecule: NC1=N/C(=C2/CCNC(=O)c3[nH]c4ccccc4c32)C(=O)N1
Target entity: TNF-α production
pIC50: 5.09
